The origin of these recorded values is patent US11945808B2.

This listing pairs molecules with measured IC50.
- SYSTEM: human opioid NOP (Homo sapiens)
- Sequence (P41146 whole entry): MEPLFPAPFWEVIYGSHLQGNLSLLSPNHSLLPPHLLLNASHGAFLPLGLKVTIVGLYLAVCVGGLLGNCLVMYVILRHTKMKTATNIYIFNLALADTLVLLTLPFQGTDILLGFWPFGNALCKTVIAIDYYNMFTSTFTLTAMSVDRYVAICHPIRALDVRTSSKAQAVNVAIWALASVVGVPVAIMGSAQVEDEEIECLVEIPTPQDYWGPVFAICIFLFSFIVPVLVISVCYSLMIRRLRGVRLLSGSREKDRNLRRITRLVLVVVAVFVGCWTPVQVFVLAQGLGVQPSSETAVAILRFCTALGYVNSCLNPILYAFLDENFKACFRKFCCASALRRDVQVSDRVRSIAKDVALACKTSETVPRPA
- MEASUREMENT_PROTOCOL: Cell-based NOP cAMP assay (LANCE cAMP, TR-FRET)
- RECORDED_CONDITIONS: antagonism of nociceptin in cAMP assay, cells expressing human NOP, forskolin-stimulated; values given as ranges; read-out: NOP (pIC50) (converted)

CC1(NCCC2CCC(c3cccc(F)c3Cl)CC2)CCCC1 (stereo not drawn): > 1000 nM
Cc1nccnc1[C@H]1CC[C@H](CCNC2CCOCC2)CC1: > 1000 nM

Now look at this one.
Lab note: measured IC50 of Fc1cnc([C@H]2CC[C@H](CCNC3CCOCC3)CC2)nc1 was > 1000 nM
